# System: rabbit platelet
# test_description: ADP-induced aggregation in rabbit platelets (AG-II Aggregometer)
# Format: cell-based
# assay_context: Oryctolagus cuniculus, Platelet; 10^-4 mole; read-out: Inhibition effect on ADP-induced aggregation in rabbit platelet
property_name: inhibition at 100 µM (stock) (%)
Give bare numbers, in %.

Please review the entries below; each comes with its answer.
>  <molecule>
CC(C)(Oc1ccc2c(c1)CCC(=O)N2)C(=O)O [compound 38, reference compound]

>  <system>
rabbit platelet

>  <property_name>
inhibition at 100 µM (stock)

>  <experimental_value>
10

$$$$
>  <molecule>
CCCCN(C(=O)CCCCOc1ccc2c(c1)CCC(=O)N2)C1CCCCC1

>  <system>
rabbit platelet

>  <property_name>
inhibition at 100 µM (stock)

>  <experimental_value>
71.5

$$$$

With those in mind, consider the next molecule.
Form: molecule = O=C(O)CCCOc1ccc2[nH]c(=O)ccc2c1 [compound 39, 6-(3-Carboxypropoxy)carbostyril, reference compound] ; inhibition at 100 µM (stock) = 52
